Target: Bcl-2, P10415
Sequence (P10415 1-217): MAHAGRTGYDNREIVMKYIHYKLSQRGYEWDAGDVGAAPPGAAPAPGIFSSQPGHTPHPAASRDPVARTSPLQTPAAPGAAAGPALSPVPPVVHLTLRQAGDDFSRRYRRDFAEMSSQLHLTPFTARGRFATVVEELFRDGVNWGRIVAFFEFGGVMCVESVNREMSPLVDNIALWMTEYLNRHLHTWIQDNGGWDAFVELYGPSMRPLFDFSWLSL
Assay: peptide SPOT array, c-Myc-tagged receptor at 1 uM or 100 nM, anti-c-Myc-Cy3
ASSAY_ENDPOINT: SPOT signal as a fraction of Bim BH3's signal on the same receptor and array

> print(dat)
                               binder  measured.result
1   EEIIHKLAMQDRHIGDNIDHRMVRED [PXT1]             0.01
2   KWTAEEVVLWLEQLGPWASLYRERFL [BFAR]             0.02
3   LFRRRDISSSLNSLADSNAREFEEES [MTA2]             0.02
4  DTIYQGFAECLIRLGDSMGRGGELET [NRN1L]             0.01
5   DFMGRTFAKPLVKMADEAYCPPRFPP [OTOF]             0.06
6  HVDGLHSSEELRNLGWDFSQEKPSTT [SETD2]             0.01
7   ASEANLFEEALEKYGKDFTDIQQDFL [MTA1]             0.01
